B1: SLC22A15 (parent)
chain: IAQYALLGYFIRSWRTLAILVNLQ

Variants of: B1
experiment_notes: protein stability index of a GFP-peptide fusion (GPS, HEK-293T) (PSI 1-6); higher = more stable;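 further: lentivirally expressed fusions sorted by FACS into six bins by GFP to DsRed ratio, PSI derived from sequencing read proportions per bin multiplied by bin number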
test_conditions: c terminus: a fixed tail appended
recorded_metric: protein stability index
Just the number, please, no unit after it.

{"mutant_designation": "L17F", "protein stability index": 2.3}

// switching to the query variant
Looking up `R15S` , I found its protein stability index recorded as 2

Just for reference, the supplement of paper PMC10567573 is where these values come from.
